target: human V2 receptor (Homo sapiens (Human), UniProt P30518); test: Cellular in vitro assay for determining vasopressin receptor activity (V2, CRE-luciferase); conditions: CHO cell line transfected with human V2 receptor; [Arg8]-vasopressin at EC50 concentration; read-out: IC50 hV2
Sequence (P30518 whole entry): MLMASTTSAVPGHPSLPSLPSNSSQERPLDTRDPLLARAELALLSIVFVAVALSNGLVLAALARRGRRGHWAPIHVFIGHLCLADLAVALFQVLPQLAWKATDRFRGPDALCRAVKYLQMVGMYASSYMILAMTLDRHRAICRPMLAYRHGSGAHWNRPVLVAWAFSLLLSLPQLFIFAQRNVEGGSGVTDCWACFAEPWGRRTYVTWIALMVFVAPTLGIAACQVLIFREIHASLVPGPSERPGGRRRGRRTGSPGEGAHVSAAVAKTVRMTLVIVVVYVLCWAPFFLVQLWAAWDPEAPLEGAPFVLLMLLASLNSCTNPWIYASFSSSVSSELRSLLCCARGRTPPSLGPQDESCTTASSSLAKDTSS
Assay metric: pIC50
Remember, pIC50 is on a log scale: it is -log10 of the molar concentration.

Example results:
- Molecule: "O=C(NC(Cn1c(-c2ccc(Cl)cc2)nn(Cc2ncn(-c3ncccc3Cl)n2)c1=O)C(F)(F)F)C1CC(F)(F)C1 (racemic) [Example 15]"
  pIC50: 7.11
- Molecule: "CC(C)(C)OC(=O)NC1(C(=O)NC(Cn2c(-c3ccc(Cl)cc3)nn(Cc3ncn(-c4ncccc4Cl)n3)c2=O)C(F)(F)F)CC1 (racemic) [Example 26]"
  pIC50: 7.08

// moving on: another record for pIC50
input: Which pIC50 is reported for this molecule? O=C(CC(F)=C(F)F)NC(Cn1c(-c2ccc(Cl)cc2)nn(Cc2ncn(-c3ncccc3Cl)n2)c1=O)C(F)(F)F (racemic) [Example 31]
output: 6.96

###

Molecular target: UniProt:P37288
Sequence (P37288 whole entry): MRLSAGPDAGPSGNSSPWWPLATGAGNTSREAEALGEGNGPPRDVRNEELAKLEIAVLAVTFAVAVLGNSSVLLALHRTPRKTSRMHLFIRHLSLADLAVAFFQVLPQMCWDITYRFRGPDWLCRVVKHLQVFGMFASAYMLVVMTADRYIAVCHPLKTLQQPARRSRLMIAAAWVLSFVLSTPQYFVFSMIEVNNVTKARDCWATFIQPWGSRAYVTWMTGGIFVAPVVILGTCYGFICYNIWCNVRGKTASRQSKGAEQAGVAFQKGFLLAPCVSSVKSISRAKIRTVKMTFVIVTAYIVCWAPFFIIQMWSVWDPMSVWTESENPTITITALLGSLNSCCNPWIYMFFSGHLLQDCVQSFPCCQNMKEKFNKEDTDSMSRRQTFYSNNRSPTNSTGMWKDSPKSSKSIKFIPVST
Experiment: Cellular in vitro assay for determining vasopressin receptor activity (V1a, aequorin luminescence)
Type: cell-based
Conditions: CHO cell line transfected with human V1a receptor; [Arg8]-vasopressin at EC50 concentration; read-out: IC50 hV1a
Protocol: B-1. Cellular In Vitro Assay for Determining Vasopressin Receptor Activity The identification of agonists and antagonists of the V1a and V2 vasopressin receptors from humans, rats and dogs as well as the quantification of the activity of the compounds of the invention is carried out using recombinant cell lines. […] The bioluminescence of the cell lines is detected using a suitable luminometer [Milligan G, Marshall F, Rees S, Trends in Pharmacological Sciences 17, 235-237 (1996)]. […]
Please note: IC50 exactly at 3 nM is not fulfilled. Only values below 3 nM get fulfilled.

Past entries and their recorded results:
- Compound: "O=C(/C=C/C(F)(F)F)NC(Cn1c(-c2ccc(Cl)cc2)nn(Cc2ncn(-c3ncccc3Cl)n2)c1=O)C(F)(F)F (racemic) [Example 25]"
  Experimental target: "UniProt:P37288"
  Discrete label: "fulfilled"
- Compound: "O=C(NC(Cn1c(-c2ccc(Cl)cc2)nn(Cc2ncn(-c3ncccc3Cl)n2)c1=O)C(F)(F)F)C1CC1 (racemic) [Example 14]"
  Experimental target: "UniProt:P37288"
  Discrete label: "not fulfilled"
- Compound: "O=C(NC(Cn1c(-c2ccc(Cl)cc2)nn(Cc2ncn(-c3ncccc3Cl)n2)c1=O)C(F)(F)F)C1CC1C(F)(F)F (stereo not drawn) [Example 18]"
  Experimental target: "UniProt:P37288"
  Discrete label: "fulfilled"

input: For O=C(NC(Cn1c(-c2ccc(Cl)cc2)nn(Cc2ncn(-c3ncccc3Cl)n2)c1=O)C(F)(F)F)C1CS(=O)(=O)C1 (racemic) [Example 38] , is the recorded IC50 below the cut-off of 3 nM?
output: fulfilled

input: For O=C(NC(Cn1c(-c2ccc(Cl)cc2)nn(Cc2ncn(-c3ncccc3Cl)n2)c1=O)C(F)(F)F)C1CCNC1 (stereo not drawn) [Example 24] , is the recorded IC50 below the cut-off of 3 nM?
output: not fulfilled

input: For CC(F)(F)C(=O)NC(Cn1c(-c2ccc(Cl)cc2)nn(Cc2ncn(-c3ncccc3C(F)(F)F)n2)c1=O)C(F)(F)F (racemic) [Example 60] , is the recorded IC50 below the cut-off of 3 nM?
output: not fulfilled

input: For O=C(NC(Cn1c(-c2ccc(Cl)cc2)nn(Cc2ncn(-c3ncccc3Cl)n2)c1=O)C(F)(F)F)c1ccc(Cl)s1 (racemic) [Example 52] , is the recorded IC50 below the cut-off of 3 nM?
output: fulfilled

input: For O=C(NC(Cn1c(-c2ccc(Cl)cc2)nn(Cc2ncn(-c3ncccc3Cl)n2)c1=O)C(F)(F)F)C1CCS(=O)(=O)C1 (stereo not drawn) [Example 30] , is the recorded IC50 below the cut-off of 3 nM?
output: not fulfilled

input: For O=C(NC(Cn1c(-c2ccc(Cl)cc2)nn(Cc2ncn(-c3ncccc3Cl)n2)c1=O)C(F)(F)F)C1CS(=O)(=O)C1 (single isomer, unassigned) [Example 39] , is the recorded IC50 below the cut-off of 3 nM?
output: fulfilled

input: For O=C(CCC(F)(F)F)NC(Cn1c(-c2ccc(Cl)cc2)nn(Cc2ncn(-c3ncccc3Cl)n2)c1=O)C(F)(F)F (racemic) [Example 32] , is the recorded IC50 below the cut-off of 3 nM?
output: fulfilled

input: For O=C(CC(F)=C(F)F)NC(Cn1c(-c2ccc(Cl)cc2)nn(Cc2ncn(-c3ncccc3Cl)n2)c1=O)C(F)(F)F (racemic) [Example 31] , is the recorded IC50 below the cut-off of 3 nM?
output: not fulfilled

input: For N#CC1(C(=O)NC(Cn2c(-c3ccc(Cl)cc3)nn(Cc3ncn(-c4ncccc4Cl)n3)c2=O)C(F)(F)F)CC1 (racemic) [Example 21] , is the recorded IC50 below the cut-off of 3 nM?
output: not fulfilled

input: For CS(=O)(=O)CC(=O)NC(Cn1c(-c2ccc(Cl)cc2)nn(Cc2ncn(-c3ncccc3Cl)n2)c1=O)C(F)(F)F (racemic) [Example 44] , is the recorded IC50 below the cut-off of 3 nM?
output: fulfilled

input: For O=C1NCCC1C(=O)NC(Cn1c(-c2ccc(Cl)cc2)nn(Cc2ncn(-c3ncccc3Cl)n2)c1=O)C(F)(F)F (stereo not drawn) [Example 51] , is the recorded IC50 below the cut-off of 3 nM?
output: fulfilled
